biological target: Sodium/potassium-transporting ATPase; test: In vitro evaluation for its ability to inhibit the Na+/K+ ATPase at pH 7.4.; format: protein-complex assay, Canis lupus familiaris
Please use T whenever -Log IC50 is not below 5, and F whenever it is.

- compound: "COc1cc(C[S+]([O-])c2nc3cc(OC(F)(F)C(F)F)ccc3[nH]2)ncc1C (centres undefined)"
  assigned-class: "T"
- compound: "Cc1c(OCC(F)(F)F)ccnc1C[S+]([O-])c1nc2ccccc2[nH]1 (centres undefined) [LANSOPRAZOLE]"
  assigned-class: "F"
- compound: "COc1ccc2[nH]c([S+]([O-])Cc3ncc(C)c(OC)c3C)nc2c1 (centres undefined) [OMEPRAZOLE]"
  assigned-class: "F"
- compound: "COc1ccnc(C[S+]([O-])c2nc3cc(OC(F)(F)C(F)F)ccc3[nH]2)c1 (centres undefined)"
  assigned-class: "F"
- compound: "COc1ccnc(C[S+]([O-])c2nc3cc4c(cc3[nH]2)OC(F)(F)O4)c1OC (centres undefined)"
  assigned-class: "F"
- compound: "COc1ccnc(C[S+]([O-])c2nc3cc(OCC(F)(F)F)ccc3[nH]2)c1C (centres undefined)"
  assigned-class: "T"

# check: -Log IC50 of COc1ccnc(C[S+]([O-])c2nc3cc(OC(F)F)ccc3[nH]2)c1C (centres undefined) is greater than or equal to 5 T

# check: -Log IC50 of COc1cnc(C[S+]([O-])c2nc3cc(OC(F)(F)C(F)F)ccc3[nH]2)cc1OC (centres undefined) is greater than or equal to 5 F

# check: -Log IC50 of COc1ccnc(C[S+]([O-])c2nc3cc(F)c(OC(F)F)cc3[nH]2)c1C (centres undefined) is greater than or equal to 5 F
